The reader will find reported pIC50 values listed item by item below.
measurement.target: T1, βTrCP (tag cleaved and complexed with Skp1) (UniProt Q9Y297 175-605; P63208 1-163)
T1 construct: Protein of the FP assay (0.035 µM); also called Beta Transducin repeat-containing protein; βTrCP/Skp1
T1 sequence (Q9Y297 175-605, chain 1 of 2): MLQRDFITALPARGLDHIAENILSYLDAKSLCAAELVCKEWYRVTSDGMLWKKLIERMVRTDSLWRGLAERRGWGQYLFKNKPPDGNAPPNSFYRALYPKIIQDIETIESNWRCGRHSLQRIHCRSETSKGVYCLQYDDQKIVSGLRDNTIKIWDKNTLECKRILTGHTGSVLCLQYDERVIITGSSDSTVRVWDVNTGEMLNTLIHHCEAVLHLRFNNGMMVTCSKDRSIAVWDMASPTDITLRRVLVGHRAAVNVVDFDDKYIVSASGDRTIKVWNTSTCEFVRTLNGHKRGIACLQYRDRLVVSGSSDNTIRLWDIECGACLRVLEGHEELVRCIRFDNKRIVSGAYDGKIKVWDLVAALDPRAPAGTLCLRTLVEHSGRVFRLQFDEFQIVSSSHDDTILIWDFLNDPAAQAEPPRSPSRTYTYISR
T1 sequence (P63208 whole entry, chain 2 of 2): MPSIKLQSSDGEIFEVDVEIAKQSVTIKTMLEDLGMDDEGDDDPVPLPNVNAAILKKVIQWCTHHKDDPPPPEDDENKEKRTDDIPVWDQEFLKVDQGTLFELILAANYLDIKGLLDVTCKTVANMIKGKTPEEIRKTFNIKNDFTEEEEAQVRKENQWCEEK
assay.notes: FP competition vs fluorescein-IκB peptide
pIC50: −log10 of the molar value. Non-standard residues stand in square brackets, D forms with d. *: point of attachment. Phe(3-F) = N[C@@H](Cc1cccc(F)c1)C(=O)O; 1Nal = N[C@@H](Cc1cccc2ccccc12)C(=O)O; Tos = Cc1ccc(S(=O)(=O)*)cc1
reported.endpoint: pIC50

binder | reported.endpoint | observed.value
Tos-[dD]EG[Phe(3-F)]WE-NH2 (SMILES Cc1ccc(S(=O)(=O)N[C@H](CC(=O)O)C(=O)N[C@@H](CCC(=O)O)C(=O)NCC(=O)N[C@@H](Cc2cccc(F)c2)C(=O)N[C@@H](Cc2c[nH]c3ccccc23)C(=O)N[C@@H](CCC(=O)O)C(N)=O)cc1, also called UBP021) [Ts-dEGF(3F)WE-NH2] | pIC50 | 7.54
Ac-[dD]EG[Phe(3-F)][1Nal]E-NH2 (SMILES CC(=O)N[C@H](CC(=O)O)C(=O)N[C@@H](CCC(=O)O)C(=O)NCC(=O)N[C@@H](Cc1cccc(F)c1)C(=O)N[C@@H](Cc1cccc2ccccc12)C(=O)N[C@@H](CCC(=O)O)C(N)=O, also called UBP016) [Ac-dEGF(3F)1NalE-NH2] | pIC50 | 6.95
